Measured melting point accompanies every entry in the list below.

The cases that follow already have their melting point on record.
INSERT INTO results (molecule_smiles, observed_result) VALUES
  ('CCCCCOC(=O)n1cc(F)c(N)nc1=O', '125.9 to 128.2 °C'),
  ('Nc1nc(=O)n(C(=S)Oc2ccccc2)cc1F', '113 to 116 °C'),
  ('C=CCOC(=O)n1cc(F)c(N)nc1=O', '258 to 260.4 °C');

Returns the measured melting point for the input molecule. Input: Nc1nc(=O)n(C(=O)Oc2ccc(F)cc2)cc1F 156.8 to 158.2 °C

Entry Nc1nc(=O)n(C(=O)Oc2ccccc2Cl)cc1F please 222.5 to 224.6 °C

Entry Nc1nc(=O)n(C(=O)OCc2ccccc2)cc1F please 212 to 215 °C
